conditions: pH 10

{"columns": ["Smiles Record", "logDpH 10.0"],
 "data": [
  ["Cc1ccncc1", 1.33],
  ["Nc1ccc(N)cc1", "−0.30"],
  ["Nc1ccccc1", 0.90],
  ["Cc1ccccc1N", 1.40],
  ["COc1ccc(N)cc1", 0.80],
  ["CCN(CC)c1ccccc1", 3.31],
  ["c1ccc(CNCc2ccccc2)cc1", 3.01]
]}

* * *

conditions: pH 7.0; calculated with literature logP, pKa and pH, Equation (S3)
Response field label takes satisfied when logDpH 7.0 is strictly below 1 and not satisfied in all other cases.

{"columns": ["Compound", "Group Label"],
 "data": [
  ["CN(C)Cc1ccccc1 [N, N-Dimethylbenzylamine]", "satisfied"],
  ["CC(C)c1ccc(N)cc1 [4-Isopropylaniline]", "not satisfied"],
  ["CCc1ccccn1 [2-Ethylpyridine]", "not satisfied"],
  ["Cc1ccnc(C)c1 [2,4-Dimethylpyridine]", "not satisfied"],
  ["Nc1ccc(F)cc1 [4-Fluoroaniline]", "not satisfied"],
  ["Cc1ccnc(N)c1 [2-Amino-4-methylpyridine]", "satisfied"]
]}

* * *

The entries below are paired with their reported chromatographic logD.
assay: logD determined by multi-parameter QSRR models from IS-RPLC logkw; conditions: IS-RPLC retention (logkw), pH 8
Assay Endpoint: chromatographic logD

{"columns": ["Compound", "Assay Endpoint", "Recorded Result"],
 "data": [
  ["c1ccc(CNCc2ccccc2)cc1 [Dibenzylamine]", "chromatographic logD", 2.36],
  ["Nc1ccc(I)cc1 [4-Iodoaniline]", "chromatographic logD", 2.1],
  ["CCC(C(N)=O)N1CCCC1=O (centres unmarked) [Etiracetam]", "chromatographic logD", 0.54],
  ["Cc1c[nH]cn1 [4-Methylimidazole]", "chromatographic logD", 0.06],
  ["CCc1ccccn1 [2-Ethylpyridine]", "chromatographic logD", 1.62],
  ["Nc1ccc(Br)cc1 [4-Bromoaniline]", "chromatographic logD", 1.81],
  ["Nc1cccc(S(=O)(=O)c2cccc(N)c2)c1 [3,3’-Sulfonyldianiline]", "chromatographic logD", 1.67],
  ["COc1nc(C)nc(N)n1 [2-Amino-4-methyl-6-methoxy-s-triazine]", "chromatographic logD", 1.22],
  ["O=C(O)c1cc(O)nc(O)c1 [Citrazinic acid]", "chromatographic logD", 2.05],
  ["Nc1ncncn1 [2-Amino-1,3,5-triazine]", "chromatographic logD", 1.22],
  ["O=C(n1ccnc1)n1ccnc1 [1,1’-Carbonyldiimidazole]", "chromatographic logD", -0.46]
]}

* * *

assay: physchem; settings: pH 7
Response field label: string, one of Condition met (chromatographic logD strictly below 2) or Condition not met.

{"columns": ["Smiles Record", "Group Label"],
 "data": [
  ["CCc1ccccc1N", "Condition met"],
  ["Nc1ccccc1N", "Condition met"],
  ["Cc1cc([N+](=O)[O-])ccc1N", "Condition met"],
  ["Nc1ccc([N+](=O)[O-])cc1[N+](=O)[O-]", "Condition met"],
  ["Nc1c(Cl)cc([N+](=O)[O-])cc1[N+](=O)[O-]", "Condition not met"],
  ["Nc1cccc(N)c1", "Condition met"]
]}

* * *

Entries annotated with measured logkw-pH 9.0
experiment: IS-RPLC retention on silica-based C18 column, logkw by linear solvent strength model; type: physicochemical; conditions: pH 9.0; methanol/20 mmol/L ammonium phosphate buffer, Welch Xtimate C18, 30 °C; 100% aqueous extrapolation
Assay Endpoint: logkw-pH 9.0

{"columns": ["Compound", "Assay Endpoint", "Recorded Result"],
 "data": [
  ["Cc1ccnc(C)c1", "logkw-pH 9.0", 1.88],
  ["Nc1ncncn1", "logkw-pH 9.0", 1.38],
  ["CCc1ccccn1", "logkw-pH 9.0", 1.80],
  ["CCC(C(N)=O)N1CCCC1=O (stereo not drawn)", "logkw-pH 9.0", 0.82],
  ["Nc1ccc(I)cc1", "logkw-pH 9.0", 2.29],
  ["Nc1ccc([N+](=O)[O-])cc1[N+](=O)[O-]", "logkw-pH 9.0", 1.78],
  ["Nc1cccc(N)c1", "logkw-pH 9.0", "−0.16"],
  ["O=C(O)c1cc(O)nc(O)c1", "logkw-pH 9.0", 1.20],
  ["CN(C)Cc1ccccc1", "logkw-pH 9.0", 2.13],
  ["Cc1cc([N+](=O)[O-])ccc1N", "logkw-pH 9.0", 1.46],
  ["Cc1ccccn1", "logkw-pH 9.0", 1.34],
  ["c1ccc(CNCc2ccccc2)cc1", "logkw-pH 9.0", 3.28],
  ["O=C(n1ccnc1)n1ccnc1", "logkw-pH 9.0", "−0.27"],
  ["COc1nc(C)nc(N)n1", "logkw-pH 9.0", 1.38],
  ["Nc1c(Cl)cc([N+](=O)[O-])cc1[N+](=O)[O-]", "logkw-pH 9.0", 2.26],
  ["Cc1cc(C)nc(C)c1", "logkw-pH 9.0", 2.30],
  ["Nc1cccc(S(=O)(=O)c2cccc(N)c2)c1", "logkw-pH 9.0", 1.83],
  ["Nc1ccccc1", "logkw-pH 9.0", 0.97],
  ["Nc1ccc(F)cc1", "logkw-pH 9.0", 1.14],
  ["CCc1ccccc1N", "logkw-pH 9.0", 1.95],
  ["Cc1cccc(C)n1", "logkw-pH 9.0", 1.78],
  ["CC(C)c1ccc(N)cc1", "logkw-pH 9.0", 2.59],
  ["Cc1ccncc1", "logkw-pH 9.0", 1.44],
  ["c1c[nH]cn1", "logkw-pH 9.0", "−0.34"]
]}
